# measurement_target: C481S Btk (Homo sapiens, UniProt Q06187, C481S)
# Sequence (Q06187 whole entry C481S): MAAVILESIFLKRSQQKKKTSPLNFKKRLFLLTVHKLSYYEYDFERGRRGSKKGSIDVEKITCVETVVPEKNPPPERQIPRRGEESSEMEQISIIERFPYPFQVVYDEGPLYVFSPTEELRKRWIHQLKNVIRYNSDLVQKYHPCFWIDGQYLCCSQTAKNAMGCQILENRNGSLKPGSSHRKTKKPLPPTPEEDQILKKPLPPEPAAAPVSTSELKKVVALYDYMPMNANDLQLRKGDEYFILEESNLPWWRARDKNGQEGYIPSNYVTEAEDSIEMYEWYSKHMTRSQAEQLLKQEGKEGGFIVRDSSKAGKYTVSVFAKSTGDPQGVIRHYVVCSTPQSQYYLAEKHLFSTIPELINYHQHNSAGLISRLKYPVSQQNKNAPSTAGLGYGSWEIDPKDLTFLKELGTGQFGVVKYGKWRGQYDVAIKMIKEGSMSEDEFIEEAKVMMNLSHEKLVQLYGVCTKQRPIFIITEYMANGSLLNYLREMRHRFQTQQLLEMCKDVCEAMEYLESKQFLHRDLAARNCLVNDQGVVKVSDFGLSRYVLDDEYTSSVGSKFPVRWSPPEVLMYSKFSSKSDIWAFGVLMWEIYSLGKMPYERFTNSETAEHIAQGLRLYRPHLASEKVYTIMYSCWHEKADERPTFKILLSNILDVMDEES
# protocol_summary: Caliper-based kinase assay, C481S BTK
# Type: biochemical
# settings: 0.5 nM enzyme, ATP 16 μM, room temperature 3 h; read-out: C481S BTK IC50 (nM) (reversible inhibition)
# Procedure: A Caliper-based kinase assay (Caliper Life Sciences, Hopkinton, Mass.) was used to measure inhibition of WT and […] Btk kinase activity of a compound of the present disclosure. […] The reaction was then terminated with EDTA, final concentration 20 mM and the phosphorylated reaction product was quantified on a Caliper Desktop Profiler (Caliper LabChip 3000).
IC50 vs 0.5 nM: less than gives Yes; not less than gives No.

Study these solved cases before continuing.
| compound | assigned_label |
| --- | --- |
| C=CC(=O)Nc1cc(Nc2nc(-c3ccnc(N4CCc5c(sc6c5CCCC6)C4=O)c3CO)cn(C)c2=O)ccc1N1CCN(C2COC2)C[C@@H]1C [Example 36] | No |
| C=CC(=O)Nc1cc(Nc2nc(-c3ccnc(N4CCn5c(cc6c5CC(C)(C)C6)C4=O)c3CO)cn(C)c2=O)ccc1N1CCN(C2CCOCC2)C[C@@H]1C [Example 22] | Yes |
| C=CC(=O)Nc1cc(Nc2nc(-c3ccnc(N4CCn5c(cc6c5CC(C)(C)C6)C4=O)c3CO)cn(C)c2=O)ccc1N1CCC(N2CCN(C)CC2)CC1 [Example 21] | Yes |
| C=CC(=O)Nc1cc(Nc2nc(-c3ccnc(N4CCn5c(cc6c5CC(C)(C)C6)C4=O)c3CO)cn(C)c2=O)ccc1N1CCN(C2COC2)C[C@@H]1C [Example 3] | No |
| C=CC(=O)Nc1cc(Nc2nc(-c3ccnc(N4CCc5c(sc6c5CC(C)(C)C6)C4=O)c3CO)cn(C)c2=O)ccc1N1CCN(C2COC2)C[C@@H]1C [Example 34] | Yes |
| C=CC(=O)Nc1cc(Nc2nc(-c3ccnc(N4CCn5c(cc6c5CC(C)(C)C6)C4=O)c3CO)cn(C)c2=O)cc(F)c1N1CCN(C2COC2)C[C@@H]1C [Example 30] | No |
| C=CC(=O)Nc1cc(Nc2nc(-c3ccnc(N4CCn5c(cc6c5CC(C)(C)C6)C4=O)c3CO)cn(C)c2=O)ccc1N1CCC(N2CCOCC2)CC1C (centres unmarked) [Example 12] | Yes |
| C=CC(=O)Nc1cc(Nc2nc(-c3ccnc(N4CCc5c(sc6c5CCC6(C)C)C4=O)c3CO)cn(C)c2=O)ccc1N1CCN(C2COC2)C[C@@H]1C [Example 35] | No |
| C=CC(=O)Nc1cc(Nc2nc(-c3ccnc(N4CCCn5c(cc6c5CC(C)(C)C6)C4=O)c3CO)cn(C)c2=O)ccc1N1CCN([C@H]2C[C@@H](C)O[C@@H](C)C2)C[C@@H]1C [Example 38] | Yes |
| C=CC(=O)Nc1cc(Nc2nc(-c3ccnc(N4CCn5c(cc6c5CC(C)(C)C6)C4=O)c3C)cn(C)c2=O)ccc1N1CCC(N2CCOCC2)CC1.Cl [Example 18, hydrochloride] | No |

Okay, next one:
*Q* Just wondering, is IC50 of C=CC(=O)Nc1cc(Nc2nc(-c3ccnc(N4CCn5c(cc6c5CC(C)(C)C6)C4=O)c3CO)cn(C)c2=O)ccc1N1CCC(N2CCC(F)(F)CC2)CC1 [Example 20] below 0.5 nM?
*A* Yes

====

# measurement_target: WT BTK (Homo sapiens)
# Sequence (Q06187 whole entry): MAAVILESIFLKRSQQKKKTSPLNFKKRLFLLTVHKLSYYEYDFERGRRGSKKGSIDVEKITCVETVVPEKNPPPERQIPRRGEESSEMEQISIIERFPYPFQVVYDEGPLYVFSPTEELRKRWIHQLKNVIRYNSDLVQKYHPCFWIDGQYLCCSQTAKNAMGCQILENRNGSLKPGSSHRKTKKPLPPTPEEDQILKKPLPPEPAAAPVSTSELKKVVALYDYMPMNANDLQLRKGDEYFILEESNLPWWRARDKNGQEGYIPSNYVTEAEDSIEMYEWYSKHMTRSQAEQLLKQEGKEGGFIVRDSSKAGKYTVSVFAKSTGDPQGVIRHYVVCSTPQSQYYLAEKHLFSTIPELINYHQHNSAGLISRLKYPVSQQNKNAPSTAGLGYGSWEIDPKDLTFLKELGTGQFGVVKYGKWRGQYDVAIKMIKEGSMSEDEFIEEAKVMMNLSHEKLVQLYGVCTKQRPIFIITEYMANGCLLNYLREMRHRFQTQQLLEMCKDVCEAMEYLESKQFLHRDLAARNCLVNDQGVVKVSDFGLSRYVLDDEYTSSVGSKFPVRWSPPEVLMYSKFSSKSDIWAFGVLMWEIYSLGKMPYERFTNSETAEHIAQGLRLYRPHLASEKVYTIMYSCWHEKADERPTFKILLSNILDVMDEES
# protocol_summary: Caliper-based kinase assay, WT BTK
# Type: biochemical
# settings: 0.5 nM enzyme, ATP 16 μM, room temperature 3 h; read-out: WT BTK IC50 (nM) (irreversible inhibition)
Parameter log10 IC50: see the listing below.
Please keep in mind that the values are log10 of IC50 expressed in nM.

Illustrative cases are given below, each with its answer.
| compound | assay_result |
| --- | --- |
| C=CC(=O)Nc1cc(Nc2nc(-c3ccnc(N4CCn5c(cc6c5CC(C)(C)C6)C4=O)c3CO)cn(C)c2=O)ccc1C1C(=O)N(C)CCN1C1COC1 (centres unmarked) | -0.57 |
| C=CC(=O)Nc1cc(Nc2nc(-c3ccnc(N4CCn5c(cc6c5CC(C)(C)C6)C4=O)c3CO)cn(C)c2=O)ccc1N1CCN(C2CCOCC2)C[C@H]1C(F)(F)F | -1.10 |

*Q* Given the compound `C=CC(=O)Nc1cc(Nc2nc(-c3ccnc(N4CCc5c(sc6c5CCCC6)C4=O)c3C)cn(C)c2=O)ccc1N1CCN(C2CCOCC2)C[C@@H]1C(F)(F)F` , write its reported log10 IC50.
*A* 0.46

*Q* Given the compound `C=CC(=O)Nc1cc(Nc2nc(-c3ccnc(N4CCn5c(cc6c5CC(C)(C)C6)C4=O)c3C)cn(C)c2=O)cnc1N1CCN(C2COC2)C[C@@H]1C` , write its reported log10 IC50.
*A* -0.80

*Q* Given the compound C=CC(=O)Nc1cc(Nc2nc(-c3ccnc(N4CCn5c(cc6c5CC(C)(C)C6)C4=O)c3CO)cn(C)c2=O)ccc1N1CCN(C2CCOC2)C[C@@H]1C (some centres unmarked) , write its reported log10 IC50.
*A* -1.22

*Q* Given the compound `C=CC(=O)Nc1cc(Nc2nc(-c3ccnc(N4CCn5c(cc6c5CC(C)(C)C6)C4=O)c3CO)cn(C)c2=O)ccc1N1CCC(N2CCN(C)CC2)CC1` , write its reported log10 IC50.
*A* -1.40

*Q* Given the compound C=CC(=O)Nc1cc(Nc2nc(-c3ccnc(N4CCn5c(cc6c5CC(C)(C)C6)C4=O)c3CO)cn(C)c2=O)ccc1C1CN(C)C(=O)CN1C1COC1 (centres unmarked) , write its reported log10 IC50.
*A* -0.46

*Q* Given the compound `C=CC(=O)Nc1cc(Nc2nc(-c3ccnc(N4CCn5c(cc6c5CC(C)(C)C6)C4=O)c3CO)cn(C)c2=O)ccc1N1CCC(N2CCC(F)(F)CC2)CC1` , write its reported log10 IC50.
*A* -1.28

*Q* Given the compound `C=CC(=O)Nc1cc(Nc2nc(-c3ccnc(N4CCc5c(sc6c5CCC6(C)C)C4=O)c3CO)cn(C)c2=O)ccc1N1CCN(C2COC2)C[C@@H]1C` , write its reported log10 IC50.
*A* -0.89

*Q* Given the compound `C=CC(=O)Nc1cc(Nc2nc(-c3ccnc(N4CCc5c(sc6c5CCCC6)C4=O)c3CO)cn(C)c2=O)ccc1N1CCN(C2COC2)C[C@@H]1C` , write its reported log10 IC50.
*A* -1.00

*Q* Given the compound `C=CC(=O)Nc1cc(Nc2nc(-c3ccnc(N4CCCn5c(cc6c5CC(C)(C)C6)C4=O)c3CO)cn(C)c2=O)ccc1N1CCN([C@H]2C[C@@H](C)O[C@@H](C)C2)C[C@@H]1C` , write its reported log10 IC50.
*A* -1.14

====

# measurement_target: WT BTK (Homo sapiens)
# protocol_summary: Caliper-based kinase assay, WT BTK
# Type: biochemical
# settings: 0.5 nM enzyme, ATP 16 μM, room temperature 3 h; read-out: WT BTK IC50 (nM) (irreversible inhibition)
# Procedure: A Caliper-based kinase assay (Caliper Life Sciences, Hopkinton, Mass.) was used to measure inhibition of WT and […] Btk kinase activity of a compound of the present disclosure. […] The reaction was then terminated with EDTA, final concentration 20 mM and the phosphorylated reaction product was quantified on a Caliper Desktop Profiler (Caliper LabChip 3000).
IC50 vs 0.1 nM: less than gives true; not less than gives false.

| compound | assigned_label |
| --- | --- |
| C=CC(=O)Nc1cc(Nc2nc(-c3ccnc(N4CCn5c(cc6c5CC(C)(C)C6)C4=O)c3C)cn(C)c2=O)ccc1N1CCN(C2CCOCC2)C[C@@H]1C(F)(F)F [Example 53-R] | false |
| C=CC(=O)Nc1cc(Nc2nc(-c3ccnc(N4CCn5c(cc6c5CC(C)(C)C6)C4=O)c3C)cn(C)c2=O)ccc1N1CCN(C2CCOCC2)C[C@@H]1C [Example 40] | true |
| C=CC(=O)Nc1cc(Nc2nc(-c3ccnc(N4CCn5c(cc6c5CC(C)(C)C6)C4=O)c3CO)cn(C)c2=O)ccc1N1CCC(N2CCOCC2)CC1C (centres unmarked) [Example 12] | true |
| C=CC(=O)Nc1cc(Nc2nc(-c3ccnc(N4CCn5c(cc6c5CC(C)(C)C6)C4=O)c3C)cn(C)c2=O)ccc1N1CCN(C2CCOCC2)C[C@H]1C(F)(F)F [Example 53-S] | false |
| C=CC(=O)Nc1cc(Nc2nc(-c3ccnc(N4CCn5c(cc6c5CC(C)(C)C6)C4=O)c3CO)cn(C)c2=O)ccc1N1CCN(C2CCOCC2)C[C@@H]1C(F)(F)F [Example 48-R] | true |

*Q* Just wondering, is IC50 of C=CC(=O)Nc1cc(Nc2nc(-c3ccnc(N4CCn5c(cc6c5CC(C)(C)C6)C4=O)c3CO)cn(C)c2=O)ccc1N1CCN(C2COC2)C[C@@H]1C [Example 3] below 0.1 nM?
*A* false

*Q* Just wondering, is IC50 of C=CC(=O)Nc1cc(Nc2nc(-c3ccnc(N4CCc5c(sc6c5CCCC6)C4=O)c3C)cn(C)c2=O)ccc1N1CCN(C2COC2)C[C@@H]1C [Example 44] below 0.1 nM?
*A* false

*Q* Just wondering, is IC50 of C=CC(=O)Nc1cc(Nc2nc(-c3ccnc(N4CCc5c(sc6c5CCCC6)C4=O)c3CO)cn(C)c2=O)ccc1N1CCN(C2CCOCC2)C[C@H]1C(F)(F)F [Example 55-S] below 0.1 nM?
*A* false

*Q* Just wondering, is IC50 of C=CC(=O)Nc1cc(Nc2nc(-c3ccnc(N4CCn5c(cc6c5CC(C)(C)C6)C4=O)c3CO)cn(C)c2=O)ccc1N1CCN(C2CCOCC2)C[C@@H]1C [Example 22] below 0.1 nM?
*A* true

*Q* Just wondering, is IC50 of C=CC(=O)Nc1cc(Nc2nc(-c3ccnc(N4CCn5c(cc6c5CC(C)(C)C6)C4=O)c3CO)cn(C)c2=O)cc(F)c1N1CCN(C2COC2)C[C@@H]1C [Example 30] below 0.1 nM?
*A* false
